- targetEntity: Serine/threonine-protein kinase Nek2 (Homo sapiens) (UniProt P51955)
- Sequence (P51955 whole entry): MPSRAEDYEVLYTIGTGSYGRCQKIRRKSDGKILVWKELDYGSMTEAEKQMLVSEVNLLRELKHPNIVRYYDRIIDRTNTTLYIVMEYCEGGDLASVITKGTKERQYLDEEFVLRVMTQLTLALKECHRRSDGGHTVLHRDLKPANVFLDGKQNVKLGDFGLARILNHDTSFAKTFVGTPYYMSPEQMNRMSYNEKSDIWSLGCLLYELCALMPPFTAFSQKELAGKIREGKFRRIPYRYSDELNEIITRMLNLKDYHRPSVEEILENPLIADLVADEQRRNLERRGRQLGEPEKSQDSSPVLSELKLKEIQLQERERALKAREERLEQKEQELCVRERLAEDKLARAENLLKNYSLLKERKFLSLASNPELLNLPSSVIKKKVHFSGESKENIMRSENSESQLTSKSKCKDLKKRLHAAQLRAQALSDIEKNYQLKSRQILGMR
- testDescription: Inhibition of NEK2 (unknown origin) at 1 uM relative to control
Please mark class 1 if the recorded inhibition is equal to or greater than 0.9%, and class 0 if it falls below.

Has Nc1nccc2scc(-c3ccc4c(c3)CCN4C(=O)Cc3ccccc3)c12 a recorded inhibition greater than or equal to 0.9%?
class 1

Is inhibition for O=c1[nH]ccc2nc(N[C@@H]3CCCNC3)nc(Nc3ccc(S(=O)(=O)N4CCOCC4)cc3)c12 at or above 0.9%?
class 1

API: above_or_equal(metric=inhibition, cutoff=0.9%) for item Cn1cc(-c2ccc3c(c2)CCN3C(=O)Cc2ccccc2Cl)c2c(N)ncnc21
class 1

I'd appreciate it if you could say whether COc1cccc(C2=C(Nc3cccc(O)c3)C(=O)NC2=O)c1 has inhibition at least equal to 0.9%.
class 0

# check: inhibition of Cn1cc(-c2ccc3c(c2)CCN3C(=O)Cc2cc(F)cc(C(F)(F)F)c2)c2c(N)ncnc21 is greater than or equal to 0.9%
class 1
